// values below are reported GI50
- System: A498
- TEST_NAME: NCI tumour cell line growth inhibition, 48 h
The source made the active and inactive calls. No stated cut-off is given here; in the data, active = GI50 up to about 1.1 µM and inactive = higher.

Examples with answers:
MOLECULE	SYSTEM_NAME	GI50
O=C1C(=O)c2c(oc(=O)c3ccccc23)-c2ccccc21	A498	> 25 µM (inactive)
O=C1OC(c2ccccc2Br)=N/C1=C/c1ccccc1	A498	> 100 µM (inactive)
N#Cc1c(N)c(-c2ccc(Cl)cc2)c(F)c2ccccc12	A498	> 100 µM (inactive)
C[C@H]1COC(c2ccccn2)=N1	A498	> 100 µM (inactive)
CCCC(=O)Oc1c2ccsc2c(OC(=O)CCC)c2ccsc12	A498	4.6 µM (inactive)

*Q* Complete the entry with GI50 for c1csc(-c2cc(-c3cccs3)c(-c3cccs3)s2)c1
*A* > 100 µM (inactive)

*Q* Complete the entry with GI50 for C=C1C2CC[C@@](C)(O)C2[C@H]2OC(=O)C(=C)[C@@H]2C[C@H]1O (some centres undefined)
*A* 41 µM (inactive)

*Q* Complete the entry with GI50 for NC(=O)C(=O)N/N=C(\CC1(O)C(=O)Nc2ccccc21)c1ccc2ccccc2c1 (centres undefined)
*A* 17.9 µM (inactive)
